Origin of values: PubChem BioAssay (NCATS)

- Tested on: CRL-7250
- assay-protocol: Cytotoxic Profiling of Annotated Libraries Using Quantitative High-Throughput Screening (AID 1296008); also: nearly all actives have a fitted effect of over 60% in size
- experimental-setup: Five cell lines viability, CellTiter-Glo ATP luminescence, 48-72 h
Records with an inconclusive call do not appear. Activity calls are given as the source filed them. Calls follow the shape of the dose curve; as a rule, active = well fitted inhibition curve with a large enough effect; inconclusive = small, poorly fitted or top-dose-only effect; inactive = flat fitted curve, though single readings scatter.
Please reply with one of these outcomes: active, inactive

IN: What classification did CN1Cc2c(ccc3c2OCO3)[C@@H]2[C@H]1c1cc3c(cc1C[C@@H]2O)OCO3 end up with in this test?
OUT: active

IN: What classification did CO[C@@H]1[C@@H](O)[C@@H](O[C@H]2CC[C@]3(C=O)C4CC[C@]5(C)[C@@H](C6=CC(=O)OC6)CC[C@]5(O)[C@@H]4CC[C@H]3C2)O[C@@H](C)[C@H]1O[C@@H]1O[C@H](CO[C@@H]2O[C@H](CO)[C@@H](O)[C@H](O)[C@H]2O)[C@@H](O)[C@H](O)[C@H]1O (stereo partly specified) end up with in this test?
OUT: active

IN: What classification did C[C@]12CC[C@H](O[C@@H]3O[C@H](CO)[C@@H](O)[C@H](O)[C@H]3O)CC1=CC[C@@H]1C2CC[C@]2(C)[C@@H](C3=CC(=O)OC3)CC[C@]12O (stereo partly specified) end up with in this test?
OUT: active

IN: What classification did CC[C@H](O)[C@@H](C)[C@H]1O[C@@H]1C[C@H](C)/C=C/C=C(\C)[C@H]1OC(=O)C[C@H](O)CC[C@@](C)(O)[C@@H](OC(C)=O)/C=C/[C@@H]1C end up with in this test?
OUT: active

IN: What classification did COC1CC(O[C@H]2CC[C@]3(C=O)C4CC[C@]5(C)[C@@H](C6=CC(=O)OC6)CC[C@]5(O)[C@@H]4CC[C@@H]3C2)OC(C)C1O[C@@H]1O[C@H](CO)[C@@H](O[C@@H]2O[C@H](CO)[C@@H](O)[C@H](O)[C@H]2O)[C@H](O)[C@H]1O (stereo partly specified) end up with in this test?
OUT: active

IN: What classification did CN1C2CCC1CC(OC(=O)N1Cc3ccccc3NC1=O)C2 (stereo unspecified) end up with in this test?
OUT: inactive

----------
- assay-protocol: qHTS for Inhibitors of the Functional Ribonucleoprotein Complex (vRNP) of Lassa (LASV) Arenavirus: Viability assay - alamar blue signal for LASV Primary Screen (AID 1347083); also: nearly all actives have a fitted effect of over 80% in size
- experimental-setup: cell viability, alamar blue fluorescence (LASV minigenome counter-screen); series mostly up to 57.5 µM
Inconclusive results are not listed. Activity calls are given as the source filed them. Calls follow the shape of the full dose curve; tested in HEK293 reporter line.
Please reply with one of these outcomes: T (active), F (inactive)

IN: What classification did CC1(C)CC(=O)CC(C)(C)N1 end up with in this test?
OUT: F

IN: What classification did CC(C)NCC(O)COc1ccc(CC(N)=O)cc1 (stereo not given) end up with in this test?
OUT: F

IN: What classification did C[C@H](CCC(=O)NCC(=O)O)[C@H]1CC[C@H]2[C@@H]3[C@H](O)C[C@@H]4C[C@H](O)CC[C@]4(C)[C@H]3C[C@H](O)[C@]12C end up with in this test?
OUT: F

IN: What classification did Nc1nc(Cl)nc2c1ncn2[C@@H]1O[C@H](CO)C(O)[C@H]1O (stereo not given in full) end up with in this test?
OUT: F

IN: What classification did COc1cc2c(cc1-c1c(C)noc1C)ncc1[nH]c(=O)n([C@H](C)c3ccccn3)c12 end up with in this test?
OUT: T

----------
- Test system: SKOV3
- assay-protocol: Primary qHTS to identify gynecologic anti-cancer compounds using libraries of approved drugs and bioactive compounds (AID 1345084); also: nearly all actives have a fitted effect of over 55% in size
- experimental-setup: Gynecologic cancer cell panel viability, ATPlite luminescence, 48 h; series mostly up to 57.5 µM
Results filed as inconclusive are left out. Activity calls are given as the source filed them. The call rests on the fitted dose curve; in most records, active means well fitted cell-killing curve with a large enough effect; inconclusive means small, poorly fitted or top-dose-only effect, or effect the other way; inactive means flat fitted curve, though single readings scatter.
measurement-type: outcome

compound: COC(=O)CC1CC2(C(=O)c3c(O)cccc3C2(O)C(=O)OC)C(C)O1 (centres undefined)
measurement-type: outcome
measured-value: inactive
--
compound: CC1=CC2/C=C(\C)CCCC(O)/C=C/C(=O)OC23C(=O)NC(CC(C)C)C3C1C (centres undefined)
measurement-type: outcome
measured-value: inactive
--
compound: FC(F)(F)c1ccc(N2CCNCC2)nc1Cl
measurement-type: outcome
measured-value: inactive
--
compound: COC(=O)C12C(=O)C(C)(O)C(=O)C1(C)C(C)=CC1C3(C=O)CCC(OC(C)=O)C(C)(C)C3CCC12C (centres undefined)
measurement-type: outcome
measured-value: inactive

----------
- assay-protocol: qHTS for Inhibitors of the Functional Ribonucleoprotein Complex (vRNP) of Lassa (LASV) Arenavirus: Viability assay - alamar blue signal for LASV Primary Screen (AID 1347083); also: nearly all actives have a fitted effect of over 80% in size
- experimental-setup: cell viability, alamar blue fluorescence (LASV minigenome counter-screen); series mostly up to 57.5 µM
Results filed as inconclusive are left out. Activity calls are given as the source filed them. Calls follow the shape of the full dose curve; tested in HEK293 reporter line.
Please reply with one of these outcomes: class 1 for active, class 0 for inactive

IN: What classification did CC(C)(O)[C@H]1CC[C@@](C)([C@H]2[C@@H](O)C[C@@]3(C)[C@@H]4C[C@H](O[C@@H]5O[C@H](CO)[C@@H](O)[C@H](O)[C@@H]5O)[C@H]5C(C)(C)[C@@H](O[C@@H]6OC[C@@H](O)[C@H](O)[C@@H]6O)CC[C@@]56C[C@@]46CC[C@]23C)O1 end up with in this test?
OUT: class 0

IN: What classification did NC(=O)c1ncn([C@@H]2O[C@H](CO)[C@@H](O)[C@@H]2O)c1O end up with in this test?
OUT: class 0

IN: What classification did COC(=O)c1c(C)cc(O)c(C)c1O end up with in this test?
OUT: class 0

IN: What classification did O=c1c(O)c(-c2ccccc2O)oc2cc(O)cc(O)c12 end up with in this test?
OUT: class 0

IN: What classification did CCN1C[C@H](C)n2c(c(O)c3c(=O)n(Cc4ccc(F)c(Cl)c4)nc(C(=O)NC)c32)C1=O end up with in this test?
OUT: class 0

IN: What classification did CCCNS(=O)(=O)Nc1ncnc(OCCOc2ncc(Br)cn2)c1-c1ccc(Br)cc1 end up with in this test?
OUT: class 0

IN: What classification did CCCC1CCCC(=O)O1 (stereo not drawn) end up with in this test?
OUT: class 0

IN: What classification did CN1CCC2(CCN3CCc4c(oc5ccccc45)C3C2)N(C)C1=O (stereo not drawn) end up with in this test?
OUT: class 0

IN: What classification did NC[C@@H]1O[C@H](c2ccccc2)Cc2c1ccc(O)c2O end up with in this test?
OUT: class 0

IN: What classification did C=CCc1ccc(O)c(-c2cc(CC=C)ccc2O)c1 end up with in this test?
OUT: class 0

IN: What classification did CC=C(C)C(=O)OC1CCN2CC=C(COC(=O)C(O)(C(C)OC)C(C)(C)O)C12 (stereo not drawn) end up with in this test?
OUT: class 0

IN: What classification did CC(=O)Nc1cccc(-n2c(=O)n(C3CC3)c(=O)c3c(Nc4ccc(I)cc4F)n(C)c(=O)c(C)c32)c1 end up with in this test?
OUT: class 0

IN: What classification did N#CNC(=NCCCCCCOc1ccc(Cl)cc1)Nc1ccncc1 end up with in this test?
OUT: class 1

IN: What classification did C=CC(=O)Nc1ccc2ncnc(Nc3ccc(OCc4cccc(F)c4)c(Cl)c3)c2c1 end up with in this test?
OUT: class 1

IN: What classification did C[C@@H]1C2C[C@@]34COC(=O)C3=CC=C[C@H]4[C@@]13C[C@H](c1ccoc1)O[C@@H]3O2 end up with in this test?
OUT: class 0

IN: What classification did Cc1cc(C(=O)N2CCN(c3cccc(Cl)c3)CC2)n(-c2ccccc2)n1 end up with in this test?
OUT: class 1

IN: What classification did CCCCN1CCC(n2c(=O)[nH]c3ccccc32)CC1 end up with in this test?
OUT: class 0

IN: What classification did O=C(O)c1ccco1 end up with in this test?
OUT: class 0

IN: What classification did CN(C)S(=O)(=O)c1ccc2c(c1)/C(=C/c1cc3c([nH]1)CCCC3)C(=O)N2 end up with in this test?
OUT: class 0

IN: What classification did CC(C)CC(=O)[C@@H](O)Cc1ccc(O)cc1 end up with in this test?
OUT: class 0

IN: What classification did NCCS(=O)O end up with in this test?
OUT: class 0

IN: What classification did Cc1ccc(C(C)C)cc1O end up with in this test?
OUT: class 0

IN: What classification did C=C1[C@H]2O[C@H]2[C@@H](OC(C)=O)[C@@]2(C)[C@@H](OC(C)=O)C[C@@H](OC(C)=O)[C@@](C)(O)[C@@H]2[C@@H](OC(C)=O)[C@@]2(O)[C@@H](C)C(=O)O[C@H]2[C@H]1Cl end up with in this test?
OUT: class 0

IN: What classification did NCCC1CCCC(CCN)N1 (stereo not drawn) end up with in this test?
OUT: class 0

IN: What classification did Cc1nc(N)ncc1-c1nc(N2CCOCC2)c2sc(C(C)(C)O)cc2n1 end up with in this test?
OUT: class 1

IN: What classification did O=c1cc(-c2ccccc2)oc2cc(O)ccc12 end up with in this test?
OUT: class 0

IN: What classification did CN[C@@H](C)C(=O)N[C@H]1CN(C(=O)CC(C)C)CC[C@H]2CC[C@@H](C(=O)NC(c3ccccc3)c3ccccc3)N2C1=O end up with in this test?
OUT: class 1

IN: What classification did N#Cc1c(N(CC(=O)O)CC(=O)O)sc(C(=O)O)c1CC(=O)O end up with in this test?
OUT: class 0

IN: What classification did O=C1C2C=CC=CC2=NC(=S)N1CCN1CCC(=C(c2ccc(F)cc2)c2ccc(F)cc2)CC1 (stereo not drawn) end up with in this test?
OUT: class 0

IN: What classification did OCc1ccc(-c2ccc(-c3ccc(CO)s3)o2)s1 end up with in this test?
OUT: class 0

IN: What classification did C=O end up with in this test?
OUT: class 0

IN: What classification did Cc1ccc(C)c2ccccc12 end up with in this test?
OUT: class 0

IN: What classification did NC1(C(=O)O)CCCCC1 end up with in this test?
OUT: class 0
